Provide the recorded pIC50 for the entries that follow.
# Test system: MMP1 expression by activated synovial fibroblasts (RASFs)
# assay.protocol: 'MMP assay': complex trigger-induced MMP1 expression by synovial fibroblasts (MMP1 ELISA)
# Assay type: cell-based
# condition.notes: Homo sapiens, Fibroblast; RASFs, complex trigger, 48 hrs; read-out: MMP1 IC50
pIC50: −log10 of the molar value.

The reported pIC50 of the compound CC(C)(C)N1C[C@@H]2C[C@H]1CN2c1ccc(Nc2ncc(-c3cc(C(N)=O)n[nH]3)n3ncnc23)cc1 was < 6.00

The reported pIC50 of the compound CC(C)N1CC2CCC(C1)N2c1ccc(Nc2ncc(-c3coc(C(N)=O)c3)n3ccnc23)cc1 was < 6.00

The reported pIC50 of the compound CC(C)N1C[C@@H]2C[C@H]1CN2c1ccc(Nc2ncc(-c3cc(C(N)=O)n[nH]3)n3ncnc23)cc1 was 6.00 to 9.00

The reported pIC50 of the compound CC(C)N1CC2CCC1CN2c1ccc(Nc2ncc(-c3coc(C(N)=O)c3)n3ncnc23)cc1 (stereo not shown) was 6.00 to 9.00

The reported pIC50 of the compound CC(C)(C)N1C[C@@H]2C[C@H]1CN2c1ccc(Nc2ncc(-c3coc(C(N)=O)c3)n3ncnc23)cc1 was < 6.00

The reported pIC50 of the compound CC(C)N1C[C@@H]2C[C@H]1CN2c1cccc(Nc2ncc(-c3coc(C(N)=O)c3)n3ncnc23)c1 was < 6.00

The reported pIC50 of the compound CC(C)N1C[C@@H]2C[C@H]1CN2c1ccc(Nc2ncc(-c3cc(C(N)=O)n[nH]3)n3ncnc23)cn1 was < 6.00
